test system: Vero; experiment: Cytotoxicity against Vero cells; type: cell-based; settings: Chlorocebus sabaeus
Parameter: pIC50. Scope: all listed entries.
pIC50 field: float, defined as -log10 of concentration (mol/L).

Recorded results for 3 compounds are shown here.
O=C1c2cccnc2C(=O)N1C12CC3CC(CC(C3)C1)C2	4.74
O=C1c2ccccc2C(=O)N1Cc1ccccc1	4.00
O=C1[C@@H]2C3C=CC(CC3)[C@@H]2C(=O)N1C12CC3CC(CC(C3)C1)C2	4.85

Challenge: Given the entry O=C1c2ccccc2C(=O)N1C12CC3CC(CC(C3)C1)C2 , report its measured pIC50.
Response given: 4.70

Challenge: Can you handle C[C@@H](c1ccccc1)N1C(=O)c2nccnc2C1=O next?
Response given: 4.07

Challenge: Now this one: Cc1cccc(C)c1N1C(=O)c2nccnc2C1=O
Response given: 4.74

Challenge: Let us now turn to C[C@H](c1ccccc1)N1C(=O)[C@@H]2C3C=CC(CC3)[C@@H]2C1=O
Response given: 4.37

Challenge: Item: CC(C)c1cccc(C(C)C)c1N1C(=O)c2cccnc2C1=O
Response given: 4.68

Challenge: Let us now turn to CC(C)c1cccc(C(C)C)c1N1C(=O)c2ccccc2C1=O
Response given: 4.64

Challenge: Check C[C@H](c1ccccc1)N1C(=O)c2cccnc2C1=O too.
Response given: 4.09

Challenge: // repeat for O=C1[C@@H]2C3C=CC(CC3)[C@@H]2C(=O)N1c1ccccc1 and report
Response given: 4.17

Challenge: Also, CC(C)c1cccc(C(C)C)c1N1C(=O)[C@@H]2C3C=CC(CC3)[C@@H]2C1=O please.
Response given: 4.80

Challenge: // next record C[C@H](c1ccccc1)N1C(=O)c2nccnc2C1=O
Response given: 4.10

Challenge: What do you have for O=C1c2ccccc2C(=O)N1CCc1ccccc1 ?
Response given: 4.00

Challenge: # iterate: O=C1c2cccnc2C(=O)N1c1ccccc1
Response given: 4.14
